Test: pKa of elagolix
Assay type: physicochemical
REPORTED_METRIC: pKa

Identify pKa associated with the compound COc1cccc(-c2c(C)n(Cc3c(F)cccc3C(F)(F)F)c(=O)n(C[C@H](NCCCC(=O)O)c3ccccc3)c2=O)c1F [Compound A]
~7.89
